test system: Providencia sp. Pv 16; test: MIC, standard serial dilution method; assay type: cell-based; conditions: SP.PV16, resistance mechanism AAC(2'), Mueller-Hinton agar, 37° C
Give measured log10 MIC for each item. Keep answers brief.
In our notation, the value equals log10 of MIC in µg/mL.

NC[C@@H]1CC[C@@H](N)[C@@H](O[C@@H]2[C@@H](N)C[C@@H](N)[C@H](O[C@H]3O[C@H](CO)[C@@H](O)[C@H](N)[C@H]3O)C2(F)F)O1	1.10
CN[C@@H]1[C@@H](O)[C@@H](O[C@H]2[C@H](N)C[C@H](N)[C@@H](O[C@H]3O[C@H]([C@@H](C)N)CC[C@H]3N)C2(F)F)OC[C@]1(C)O	0.80
NC[C@H]1O[C@H](O[C@@H]2[C@@H](N)C[C@@H](N)[C@H](O[C@H]3O[C@H](CO)[C@@H](O)[C@H](N)[C@H]3O)C2(F)F)[C@H](O)[C@@H](O)[C@@H]1O	1.10
CCN[C@@H]1C[C@H](N)[C@@H](O[C@H]2OC(CN)=CC[C@H]2N)C(F)(F)[C@H]1O[C@H]1OC[C@](C)(O)[C@H](NC)[C@H]1O	1.10

Each of the following entries comes with a recorded value; kindly state log10 MIC for each.
1. CN[C@@H]1[C@@H](O)[C@@H](O[C@H]2[C@H](N)C[C@H](N)[C@@H](O[C@H]3O[C@H]([C@@H](C)NC)CC[C@H]3N)C2(F)F)OC[C@]1(C)O
2. CN[C@@H]1[C@@H](O)[C@@H](O[C@@H]2[C@@H](O)[C@H](O[C@H]3O[C@H]([C@@H](C)N)CC[C@H]3N)[C@@H](N)C[C@H]2N)OC[C@]1(C)O [Genta-C2, gentamicin C2, reference compound]

1: 1.40; 2: 0.80

Each of the following entries comes with a recorded value; kindly state log10 MIC for each.
1. NCC[C@H](O)C(=O)N[C@@H]1C[C@H](N)[C@@H](O[C@H]2O[C@H](CN)[C@@H](O)C[C@H]2N)C(F)(F)[C@H]1O[C@H]1O[C@H](CO)[C@@H](O)[C@H](N)[C@H]1O
2. NC[C@H]1O[C@H](O[C@H]2[C@H](O)[C@@H](O[C@H]3O[C@H](CO)[C@@H](O)[C@H](N)[C@H]3O)[C@H](N)C[C@@H]2N)[C@H](O)[C@@H](O)[C@@H]1O [KMA, kanamycin A, reference compound]
3. CN[C@@H]1[C@@H](O)[C@@H](O[C@H]2[C@H](NC(=O)[C@@H](O)CCN)C[C@H](N)[C@@H](O[C@H]3O[C@H]([C@@H](C)N)CC[C@H]3N)C2(F)F)OC[C@]1(C)O

1: -0.11; 2: 0.49; 3: 0.80

====

system: Serratia marcescens
Give measured MIC for each item. Keep answers brief.
Numbers only, in µg/mL.

NC[C@@H]1CC[C@@H](N)[C@@H](O[C@@H]2[C@@H](N)C[C@@H](N)[C@H](O[C@H]3O[C@H](CO)[C@@H](O)[C@H](N)[C@H]3O)C2(F)F)O1 [Compound 5FF-DKB, 5,3',4'-trideoxy-5,5-difluorokanamycin B]	12.5

Please provide the recorded MIC for NC[C@H]1O[C@H](O[C@H]2[C@H](O)[C@@H](O[C@H]3O[C@H](CO)[C@@H](O)[C@H](N)[C@H]3O)[C@H](N)C[C@@H]2N)[C@H](N)C[C@@H]1O [TOB, 3'-deoxykanamycin B, reference compound] , tested on Serratia marcescens. 3.12

====

Observed MIC values for Corynebacterium bovis 1810 are listed in what follows.
Numbers only, in µg/mL.

Please review the following examples before continuing.
CN[C@@H]1[C@@H](O)[C@@H](O[C@@H]2[C@@H](O)[C@H](O[C@H]3O[C@H]([C@@H](C)N)CC[C@H]3N)[C@@H](N)C[C@H]2N)OC[C@]1(C)O [Genta-C2, gentamicin C2, reference compound]	0.39
NCC[C@H](O)C(=O)N[C@@H]1C[C@H](N)[C@@H](O[C@H]2O[C@H](CN)[C@@H](O)[C@H](O)[C@H]2O)[C@H](O)[C@H]1O[C@H]1O[C@H](CO)[C@@H](O)[C@H](N)[C@H]1O [Amikacin, amikacin, reference compound]	1.56
NC[C@@H]1CC[C@@H](N)[C@@H](O[C@H]2[C@H](F)[C@@H](O[C@H]3O[C@H](CO)[C@@H](O)[C@H](N)[C@H]3O)[C@H](N)C[C@@H]2N)O1 [Compound 5F-DKB, 5,3',4'-trideoxy-5-fluorokanamycin B, reference compound]	6.25
CCN[C@@H]1C[C@H](N)[C@@H](O[C@H]2OC(CN)=CC[C@H]2N)[C@H](O)[C@H]1O[C@H]1OC[C@](C)(O)[C@H](NC)[C@H]1O [Netilmicin, netilmicin, reference compound]	1.56
NC[C@H]1O[C@H](O[C@H]2[C@H](O)[C@@H](O[C@H]3O[C@H](CO)[C@@H](O)[C@H](N)[C@H]3O)[C@H](N)C[C@@H]2N)[C@H](N)C[C@@H]1O [TOB, 3'-deoxykanamycin B, reference compound]	1.56

Each of the following entries comes with a recorded value; kindly state MIC for each.
1. NC[C@H]1O[C@H](O[C@H]2[C@H](O)[C@@H](O[C@H]3O[C@H](CO)[C@@H](O)[C@H](N)[C@H]3O)[C@H](N)C[C@@H]2N)[C@H](O)[C@@H](O)[C@@H]1O [KMA, kanamycin A, reference compound]
2. CN[C@@H]1[C@@H](O)[C@@H](O[C@H]2[C@H](NC(=O)[C@@H](O)CCN)C[C@H](N)[C@@H](O[C@H]3O[C@H]([C@@H](C)NC)CC[C@H]3N)C2(F)F)OC[C@]1(C)O [5FF-Genta-C1-AHB]
3. NC[C@H]1O[C@H](O[C@@H]2[C@@H](N)C[C@@H](N)[C@H](O[C@H]3O[C@H](CO)[C@@H](O)[C@H](N)[C@H]3O)C2(F)F)[C@H](N)[C@@H](O)[C@@H]1O [Compound 5FF-KMB, 5-deoxy-5,5-difluorokanamycin B]
4. NC[C@H]1O[C@H](O[C@@H]2[C@@H](N)C[C@@H](N)[C@H](O[C@H]3O[C@H](CO)[C@@H](O)[C@H](N)[C@H]3O)C2(F)F)[C@H](O)[C@@H](O)[C@@H]1O [Compound 5FF-KMA, 5-deoxy-5,5-difluorokanamycin A]

1. 12.5
2. 0.78
3. 1.56
4. 12.5

====

assay: in vivo; conditions: mouse, iv
test_readout: LD50

Any idea what LD50 was measured for NC[C@H]1O[C@H](O[C@H]2[C@H](F)[C@@H](O[C@H]3O[C@H](CO)[C@@H](O)[C@H](N)[C@H]3O)[C@H](N)C[C@@H]2N)[C@H](N)[C@@H](O)[C@@H]1O [5-deoxy-5-fluorokanamycin B, reference compound] ? ~135 mg/kg

====

tested on: Providencia sp. Pv 16; experiment: MIC, standard serial dilution method; format: cell-based; conditions: SP.PV16, resistance mechanism AAC(2'), Mueller-Hinton agar, 37° C
Give measured MIC for each item. Keep answers brief.
Numbers only, in µg/mL.

Please review the following examples before continuing.
NC[C@H]1O[C@H](O[C@H]2[C@H](O)[C@@H](O[C@H]3O[C@H](CO)[C@@H](O)[C@H](N)[C@H]3O)[C@H](N)C[C@@H]2N)[C@H](N)C[C@@H]1O [TOB, 3'-deoxykanamycin B, reference compound]	6.25
NCC[C@H](O)C(=O)N[C@@H]1C[C@H](N)[C@@H](O[C@H]2O[C@H](CN)[C@@H](O)C[C@H]2N)[C@H](F)[C@H]1O[C@H]1O[C@H](CO)[C@@H](O)[C@H](N)[C@H]1O [Compound 5F-TOB-AHB, reference compound]	0.39
NCC[C@H](O)C(=O)N[C@@H]1C[C@H](N)[C@@H](O[C@H]2O[C@H](CN)[C@@H](O)[C@H](O)[C@H]2O)[C@H](O)[C@H]1O[C@H]1O[C@H](CO)[C@@H](O)[C@H](N)[C@H]1O [Amikacin, amikacin, reference compound]	1.56
CN[C@@H]1[C@@H](O)[C@@H](O[C@H]2[C@H](NC(=O)[C@@H](O)CCN)C[C@H](N)[C@@H](O[C@H]3O[C@H]([C@@H](C)NC)CC[C@H]3N)C2(F)F)OC[C@]1(C)O	6.25

Attention now turns to another entry.
Any idea what MIC was measured for NC[C@H]1O[C@H](O[C@@H]2[C@@H](N)C[C@@H](N)[C@H](O[C@H]3O[C@H](CO)[C@@H](O)[C@H](N)[C@H]3O)C2(F)F)[C@H](N)[C@@H](O)[C@@H]1O ? 12.5

====

system: Serratia marcescens
Give measured MIC for each item. Keep answers brief.
Numbers only, in µg/mL.

Please review the following examples before continuing.
NC[C@H]1O[C@H](O[C@H]2[C@H](O)[C@@H](O[C@H]3O[C@H](CO)[C@@H](O)[C@H](N)[C@H]3O)[C@H](N)C[C@@H]2N)[C@H](O)[C@@H](O)[C@@H]1O [KMA, kanamycin A, reference compound]	12.5
CN[C@@H]1[C@@H](O)[C@@H](O[C@H]2[C@H](NC(=O)[C@@H](O)CCN)C[C@H](N)[C@@H](O[C@H]3O[C@H]([C@@H](C)NC)CC[C@H]3N)C2(F)F)OC[C@]1(C)O	3.12

Any idea what MIC was measured for NCC[C@H](O)C(=O)N[C@@H]1C[C@H](N)[C@@H](O[C@H]2O[C@H](CN)[C@@H](O)[C@H](O)[C@H]2O)[C@H](O)[C@H]1O[C@H]1O[C@H](CO)[C@@H](O)[C@H](N)[C@H]1O [Amikacin, amikacin, reference compound] ? 3.12
